# protocol: protein stability index of a GFP-peptide fusion (GPS, HEK-293T) (PSI 1-6); higher = more stable;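 note: 24-mer peptide tiles fused after GFP, lentivirally expressed, FACS-sorted into six equal bins by GFP/DsRed ratio, decoded by Illumina sequencing, PSI is the read-weighted mean bin number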
# assay-context: treatment: MLN4924 1 uM, 8 h; c terminus: a fixed tail appended
Decision: protein stability index >= 4 yields Fulfilled, all other cases yield Not fulfilled.

INPUT: Record EKGEKGDRAGDASKDILLGPWDMV [SCARA5] ; criterion: protein stability index no lower than 4. Met?
OUTPUT: Fulfilled

INPUT: Record TSSVSCALDEAAAALTRMRAESTA [ANKRD17] ; criterion: protein stability index no lower than 4. Met?
OUTPUT: Not fulfilled

INPUT: Record ALGGLQSWRVGVVRVRQDSGAEGH [TRIM35] ; criterion: protein stability index no lower than 4. Met?
OUTPUT: Not fulfilled

INPUT: Record QSDVGVAVFENKIYVVGGYSWNNR [KLHL13] ; criterion: protein stability index no lower than 4. Met?
OUTPUT: Not fulfilled

INPUT: Record TCTWKLPTLAKFSPYLGQMINLRR [PRAME] ; criterion: protein stability index no lower than 4. Met?
OUTPUT: Not fulfilled

INPUT: Record FLEALSSRYLGDSGLDDFFLDIDT [SERTAD3] ; criterion: protein stability index no lower than 4. Met?
OUTPUT: Not fulfilled

INPUT: Record DPRVQDFLQRCLESPFSRKLDLWS [NET1] ; criterion: protein stability index no lower than 4. Met?
OUTPUT: Not fulfilled

INPUT: Record TIAQSLEHSWIKAIRRRNVRGEDS [DAPK3] ; criterion: protein stability index no lower than 4. Met?
OUTPUT: Not fulfilled

INPUT: Record LINSNVSMVDLTSVTLEDVTPKKS [FAN1] ; criterion: protein stability index no lower than 4. Met?
OUTPUT: Not fulfilled

INPUT: Record AGNRNSMVIHIPEEPRPSRPRYKA [KCNK9] ; criterion: protein stability index no lower than 4. Met?
OUTPUT: Fulfilled

INPUT: Record PQDSGTAAWKGRVLLPETQKRQQL [C22orf31] ; criterion: protein stability index no lower than 4. Met?
OUTPUT: Fulfilled

INPUT: Record SLMYRSPPGAEEPQAPPASRDEAA [RETREG3] ; criterion: protein stability index no lower than 4. Met?
OUTPUT: Fulfilled

INPUT: Record GPEPPPVYTNLSSYSPASASSGGA [JUNB] ; criterion: protein stability index no lower than 4. Met?
OUTPUT: Fulfilled

INPUT: Record RKPCKLMLQVVKILVVTVQLILFG [MCOLN1] ; criterion: protein stability index no lower than 4. Met?
OUTPUT: Not fulfilled

INPUT: Record KAENARLVVNIDNAKLASDDFRSK [KRT34] ; criterion: protein stability index no lower than 4. Met?
OUTPUT: Fulfilled

INPUT: Record NNLLSAPPPDVTQLTPPSHDLTDN [ANKRD17] ; criterion: protein stability index no lower than 4. Met?
OUTPUT: Fulfilled

INPUT: Record VTSNGSIGRDPPAETQPQNPPAQP [CLPTM1] ; criterion: protein stability index no lower than 4. Met?
OUTPUT: Fulfilled

INPUT: Record EEDENGLPRRRGLRKKKTTKLRLE [NEUROD6] ; criterion: protein stability index no lower than 4. Met?
OUTPUT: Fulfilled

INPUT: Record LESVNHCHLNGIVHRDLKPENLLL [CAMK2D] ; criterion: protein stability index no lower than 4. Met?
OUTPUT: Not fulfilled

INPUT: Record RMPLLTPRYITDVIDAEPFIRCSL [KLHL12] ; criterion: protein stability index no lower than 4. Met?
OUTPUT: Not fulfilled

INPUT: Record YDTFHTVADMMYFCQMLAVVETIN [HACD3] ; criterion: protein stability index no lower than 4. Met?
OUTPUT: Not fulfilled

INPUT: Record LLPTLYEIHSKTTAYSRLNETQPI [RNF180] ; criterion: protein stability index no lower than 4. Met?
OUTPUT: Not fulfilled

INPUT: Record SSLSSESSESSDAGLCMDSPSPMD [CDC25B] ; criterion: protein stability index no lower than 4. Met?
OUTPUT: Fulfilled

INPUT: Record CHQMGVVHRDLKPENLLLASKCKG [CAMK2B] ; criterion: protein stability index no lower than 4. Met?
OUTPUT: Not fulfilled

INPUT: Record ILTLPEMMRMFSENLAHHLEIDSG [TRIM15] ; criterion: protein stability index no lower than 4. Met?
OUTPUT: Not fulfilled

INPUT: Record LLLILCMQHSFPEPGRLYLDLILA [TMEM192] ; criterion: protein stability index no lower than 4. Met?
OUTPUT: Not fulfilled

INPUT: Record DPRYELPSRKYISTKAIPEKYGAV [ZBED1] ; criterion: protein stability index no lower than 4. Met?
OUTPUT: Not fulfilled

INPUT: Record EYVLLKALALANSDSVHIEDAEAV [ESRRA] ; criterion: protein stability index no lower than 4. Met?
OUTPUT: Not fulfilled

INPUT: Record MEPGDIIGVAGNHWDGYSKGVNRK [FUT8] ; criterion: protein stability index no lower than 4. Met?
OUTPUT: Fulfilled

INPUT: Record KTYQETPEIDMFLNVATFLDPRYK [ZBED1] ; criterion: protein stability index no lower than 4. Met?
OUTPUT: Not fulfilled

INPUT: Record PNTAVSVHVSESSDDDEEEEENIG [ACBD3] ; criterion: protein stability index no lower than 4. Met?
OUTPUT: Fulfilled

INPUT: Record DVVKTQRQVALGAMEAVRVNPLHV [SLC25A39] ; criterion: protein stability index no lower than 4. Met?
OUTPUT: Not fulfilled

INPUT: Record RDDLEALGHMFMYFLRGSLPWQGL [CSNK1G3] ; criterion: protein stability index no lower than 4. Met?
OUTPUT: Not fulfilled

INPUT: Record GLSLTDESDSCVSFEAPLTPLIQQ [PSD2] ; criterion: protein stability index no lower than 4. Met?
OUTPUT: Fulfilled

* * *

# protocol: protein stability index of a GFP-peptide fusion (GPS, HEK-293T) (PSI 1-6); higher = more stable
# assay-context: treatment: DMSO; c terminus: a fixed tail appended
Decision: protein stability index >= 3 yields true, all other cases yield false.

INPUT: Record WMEVLVLGVAQRSLPLQDELAFAE [ESRRA] ; criterion: protein stability index no lower than 3. Met?
OUTPUT: true

INPUT: Record MASSPIQPRKGGADWLGLKDEDLD [FBF1] ; criterion: protein stability index no lower than 3. Met?
OUTPUT: true

INPUT: Record AYACLVCGKYFQGRGLKSHAYIHS [USP39] ; criterion: protein stability index no lower than 3. Met?
OUTPUT: false

INPUT: Record VVETINAAIGVTTSPVLPSLIQLL [HACD3] ; criterion: protein stability index no lower than 3. Met?
OUTPUT: false

INPUT: Record NDVKHHRWFRSVDWEAVPQRKLKP [PRKX] ; criterion: protein stability index no lower than 3. Met?
OUTPUT: true

INPUT: Record WKYALDMQQSNLDPLSPMTASSLL [FEM1C] ; criterion: protein stability index no lower than 3. Met?
OUTPUT: false

INPUT: Record TLSAELVPWLNLKKQDENEGIKVE [CEP70] ; criterion: protein stability index no lower than 3. Met?
OUTPUT: true

INPUT: Record STLGTLQPPPAPPKKIMPEAHSHY [PPFIA4] ; criterion: protein stability index no lower than 3. Met?
OUTPUT: true

INPUT: Record YVERKNSLKKGSLVKNLKDTLGLG [NCK2] ; criterion: protein stability index no lower than 3. Met?
OUTPUT: false

INPUT: Record EQLAALSQAPVNKPKKKKEKKEKE [BRD3] ; criterion: protein stability index no lower than 3. Met?
OUTPUT: true

* * *

# protocol: protein stability index of a GFP-peptide fusion (GPS, HEK-293T) (PSI 1-6); higher = more stable
# assay-context: treatment: DMSO; c terminus: a fixed tail appended
result-type: protein stability index
Keep the answer to the number alone.

ILDTDEYVLKYMESNAAQYSPEAL [EFHC1] yielded protein stability index of 3.99

RKPCKLMLQVVKILVVTVQLILFG [MCOLN1] yielded protein stability index of 2.44

KMNPKLKTLLAIGGWNFSTQKFTD [CHIT1] yielded protein stability index of 2.37

STNDKTVKLWKVSERDKRPEGYNL [PPP2R2B] yielded protein stability index of 3.93

SPMPYVKWMLGAEDLTPEDDMPIG [PTPRD] yielded protein stability index of 4.3

TIDMGPQLKVVERTRTATMLCAAS [PTPRD] yielded protein stability index of 3.18

YGRFIRWLNKEKGIFKIEDSAQVA [SPDEF] yielded protein stability index of 2.37

CLEGSINEHSAHCPHTPEFSVTGG [RPAIN] yielded protein stability index of 4.2

EDHIAHIIELLGSIPRHFALSGKY [SRPK2] yielded protein stability index of 2.71

LAPTFSNLLLQPTTNPHTSASHRP [SMG5] yielded protein stability index of 3.55

LVDVACKHLTDTSHGVRNKCLQLL [INTS4] yielded protein stability index of 2.18

VQEMRNKIREQNLQDIKTAGPQSQ [ADD1] yielded protein stability index of 4.98

FSRENLSKDLYLISQMDSDQFIPI [LARP4] yielded protein stability index of 2.17

AYTHGCILHPELTVDSMIPAYATT [GDAP1] yielded protein stability index of 2.65

Hello, the source for this data is the supplement of paper PMC10567573, in case you need it.
